Organism: Homo sapiens
Assay: IC50 ratio between CDK4 and GSK-3
readout type: Selectivity

compound: CN(C)C(=O)N1CCn2cc(C3=C(c4ccn5ncccc45)C(=O)NC3=O)c3cccc(c32)C1
recorded result: 370
--
compound: Cn1ccc2c(C3=C(c4cn5c6c(cccc46)CNCC5)C(=O)NC3=O)cccc21
recorded result: 1
--
compound: O=C1NC(=O)C(c2cnc3cccnn23)=C1c1cn2c3c(cccc13)CN(C(=O)N1CCCCC1)CC2 [BISARYLMALEIMIDE 1]
recorded result: 1330
--
compound: O=C1NC(=O)C(c2cnc3ncccn23)=C1c1cn2c3c(cccc13)CN(C(=O)N1CCCCC1)CC2
recorded result: 10000

A: CC(=O)N1CCn2cc(C3=C(c4cccc5ccsc45)C(=O)NC3=O)c3cccc(c32)C1
B: CN(C)C(=O)N1CCn2cc(C3=C(c4cccc5c4OCO5)C(=O)NC3=O)c3cccc(c32)C1
Prompt line: Hi, I'm comparing two records. Which one has the lower Selectivity, A or B ? Returns: label corresponding to the selected item.
Response line: A
(A: 7, B: 89)

---

Molecular target: Glycogen synthase kinase-3 beta (Homo sapiens, UniProt P49841)
Sequence (P49841 whole entry): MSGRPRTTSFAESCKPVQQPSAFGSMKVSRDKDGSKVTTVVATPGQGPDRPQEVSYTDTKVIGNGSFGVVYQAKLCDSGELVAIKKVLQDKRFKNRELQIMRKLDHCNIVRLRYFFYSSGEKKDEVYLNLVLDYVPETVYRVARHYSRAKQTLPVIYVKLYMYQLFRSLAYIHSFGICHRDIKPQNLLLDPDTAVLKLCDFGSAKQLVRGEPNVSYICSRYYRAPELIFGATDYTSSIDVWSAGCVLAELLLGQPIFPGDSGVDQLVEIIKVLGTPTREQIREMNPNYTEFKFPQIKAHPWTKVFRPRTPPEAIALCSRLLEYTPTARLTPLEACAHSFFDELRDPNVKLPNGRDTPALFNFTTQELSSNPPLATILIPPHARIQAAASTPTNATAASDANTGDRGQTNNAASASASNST
Assay: Inhibitory concentration to inhibit Ser396 phosphorylation of tau, a natural substrate of GSK-3 in SY5Y cells
readout type: IC50 (nM)

Consider the worked cases shown below.
compound: O=C1NC(=O)C(c2cnc3cnccn23)=C1c1cn2c3c(cccc13)CN(C(=O)N1CCCCC1)CC2
IC50 [nM]: 8.7
--
compound: O=C1NC(=O)C(c2cnc3ccccn23)=C1c1cn2c3c(cccc13)CN(C(=O)C1CCOCC1)CC2
IC50 [nM]: 7.7
--
compound: CN(C)C(=O)N1CCn2cc(C3=C(c4ccn5ncccc45)C(=O)NC3=O)c3cccc(c32)C1
IC50 [nM]: 38

1: CC(C)C(=O)N1CCn2cc(C3=C(c4cnc5ccccn45)C(=O)NC3=O)c3cccc(c32)C1
2: O=C1NC(=O)C(c2cnc3cccnn23)=C1c1cn2c3c(cccc13)CN(C(=O)N1CCCCC1)CC2 [BISARYLMALEIMIDE 1]
3: O=C1NC(=O)C(c2cnc3ncccn23)=C1c1cn2c3c(cccc13)CN(C(=O)N1CCOCC1)CC2
4: CC(=O)N1CCn2cc(C3=C(c4cnc5ccccn45)C(=O)NC3=O)c3cccc(c32)C1
Prompt line: // ascending sort on recorded IC50 Respond with the label ranking, as requested.
Response line: 2, 1, 4, 3

P: O=C1NC(=O)C(c2cnc3cnccn23)=C1c1cn2c3c(cccc13)CN(C(=O)N1CCOCC1)CC2
Q: O=C1NC(=O)C(c2cnc3ncccn23)=C1c1cn2c3c(cccc13)CN(C(=O)N1CCCCC1)CC2
Prompt line: # returns the entry with the larger IC50; inputs P and Q Reply with the label of the item you choose.
Response line: Q
(Q: 53 nM, P: 11 nM)

---

Target: Glycogen synthase kinase-3 (Homo sapiens, UniProt P49840+P49841)
Assay: Inhibitory concentration against the Glycogen synthase kinase-3
Format: protein assay
readout type: IC50 (nM)

molecule: O=C1NC(=O)C(c2ccn3ncccc23)=C1c1cn2c3c(cccc13)CNCC2
readout type: IC50
recorded result: 30

molecule: O=C1NC(=O)C(c2cnc3ccccn23)=C1c1cn2c3c(cccc13)CN(C(=O)C1CCOCC1)CC2
readout type: IC50
recorded result: 0.8

a: CCC(=O)N1CCn2cc(C3=C(c4cncc5ccoc45)C(=O)NC3=O)c3cccc(c32)C1
b: CC(=O)N1CCn2cc(C3=C(c4cccc5c4OCO5)C(=O)NC3=O)c3cccc(c32)C1
c: O=C1NC(=O)C(c2cn3c4c(cccc24)CNCC3)=C1c1cccc2c1CCO2
d: O=C1NC(=O)C(c2cn3c4c(cccc24)CNCC3)=C1c1ccc2c(c1)OCO2
Prompt line: Reorder: IC50, max to min. # list labels per requested ordering
Response line: c, d, b, a
(c: 130 nM, d: 27 nM, b: 2.5 nM, a: 1 nM)

1: O=C1NC(=O)C(c2cnc3cnccn23)=C1c1cn2c3c(cccc13)CN(C(=O)N1CCCCC1)CC2
2: O=C1NC(=O)C(c2cn3c4c(cccc24)CNCC3)=C1c1cccc2c1OCC2
Prompt line: Of 1 and 2 , whose reported IC50 is the larger number? # answer = label of selected item
Response line: 2

a: CN(C)C(=O)N1CCn2cc(C3=C(c4cccc5c4OCO5)C(=O)NC3=O)c3cccc(c32)C1
b: O=C1NC(=O)C(c2cnc3cccnn23)=C1c1cn2c3c(cccc13)CN(C(=O)N1CCCCC1)CC2 [BISARYLMALEIMIDE 1]
Prompt line: Which numeric IC50 is bigger, that of a or that of b ? Refer to your chosen item by its label in the answer.
Response line: a
